- Test system: MCF7 (breast) carcinoma cell line
- ASSAY_METHOD_TEXT: Anti-tumor properties, MTT
- Assay type: cell-based
- MEASUREMENT_CONDITIONS: Homo sapiens; MCF7, MTT, 72 h; read-out: IC50
EXPERIMENTAL_ENDPOINT: pIC50
Keep it numeric: pIC50 is minus log10 of the concentration in mol/L.

In plain terms, COc1cccc2c1C(=O)c1c(O)c3c(c(O)c1C2=O)C[C@@](O)(C(=O)CO)C[C@@H]3O[C@H]1C[C@H](N)[C@H](O)[C@H](C)O1 [DOX, doxorubicin, reference compound] has a documented pIC50 of 4.68

---

- System: MCF-7 cells
- ASSAY_METHOD_TEXT: Effect on doxorubicin induced cytotoxicity (MTT)
- MEASUREMENT_CONDITIONS: 10 μM DOX in combination with 100 μM curcumin derivative, 48 hr
EXPERIMENTAL_ENDPOINT: Percentage of viable cells MCF-7 (average ± SD)
Number only, no unit.

COc1cc(/C=C/C(=O)CC(=O)/C=C/c2ccc(OC(=O)CNC(=O)OCC3c4ccccc4-c4ccccc43)c(OC)c2)ccc1OC(=O)CNC(=O)OCC1c2ccccc2-c2ccccc21 ... 30.35
COc1cc(/C=C/C(=O)CC(=O)/C=C/c2ccc(OC(=O)C(C)NC(=O)OCc3ccccc3)c(OC)c2)ccc1OC(=O)C(C)NC(=O)OCc1ccccc1 (racemic) ... 45.70
COc1cc(/C=C/C(=O)CC(=O)/C=C/c2ccc(OC(=O)[C@H](Cc3ccccc3)NC(=O)OCC3c4ccccc4-c4ccccc43)c(OC)c2)ccc1OC(=O)[C@H](Cc1ccccc1)NC(=O)OCC1c2ccccc2-c2ccccc21 ... 42.49

// moving on: another record for Percentage of viable cells MCF-7 (average ± SD)
MCF-7 cells Percentage of viable cells MCF-7 (average ± SD) of "COc1cc(/C=C/C(=O)CC(=O)/C=C/c2ccc(OC(=O)[C@H](C)NC(=O)OCc3ccccc3)c(OC)c2)ccc1OC(=O)[C@H](C)NC(=O)OCc1ccccc1" is 46.65

---

- Test system: carrageenan induced paw edema
- ASSAY_METHOD_TEXT: Anti-inflammatory activity: acute carrageenan induced paw edema in rats
- Type: in vivo, Wister rats
- MEASUREMENT_CONDITIONS: 4 h; 10 mg kg^−1 indomethacin mol equivalent, intraperitoneally; mean ± SE
Class definitions on Mean edema thickness: bin A (below 0.2 mm), bin B (0.2 mm to below 0.8 mm), bin C (0.8 mm or more)

Here's what some known entries look like.
COc1cc(/C=C/C(=O)CC(=O)/C=C/c2ccc(OC(=O)[C@H](CCSC)NC(=O)OCc3ccccc3)c(OC)c2)ccc1OC(=O)[C@H](CCSC)NC(=O)OCc1ccccc1 ... bin A
COc1cc(/C=C/C(=O)CC(=O)/C=C/c2ccc(OC(=O)[C@@H](NC(=O)OCc3ccccc3)C(C)C)c(OC)c2)ccc1OC(=O)[C@@H](NC(=O)OCc1ccccc1)C(C)C ... bin C
CC[C@H](C)[C@H](NC(=O)OC(C)(C)C)C(=O)Oc1ccc(/C=C/C(=O)CC(=O)/C=C/c2ccc(OC(=O)[C@@H](NC(=O)OC(C)(C)C)[C@@H](C)CC)c(OC)c2)cc1OC ... bin B
COc1cc(/C=C/C(=O)CC(=O)/C=C/c2ccc(OC(=O)[C@@H](CCSC)NC(=O)OCc3ccccc3)c(OC)c2)ccc1OC(=O)[C@@H](CCSC)NC(=O)OCc1ccccc1 ... bin A
COc1cc(/C=C/C(=O)CC(=O)/C=C/c2ccc(OC(=O)CNC(=O)OCC3c4ccccc4-c4ccccc43)c(OC)c2)ccc1OC(=O)CNC(=O)OCC1c2ccccc2-c2ccccc21 ... bin B
COc1cc(/C=C/C(=O)CC(=O)/C=C/c2ccc(OC(=O)C(C)N)c(OC)c2)ccc1OC(=O)C(C)N.Cl.Cl (stereo not drawn) ... bin B
COc1cc(/C=C/C(=O)CC(=O)/C=C/c2ccc(OC(=O)[C@H](CCSC)NC(=O)OC(C)(C)C)c(OC)c2)ccc1OC(=O)[C@H](CCSC)NC(=O)OC(C)(C)C ... bin A
COc1cc(/C=C/C(=O)CC(=O)/C=C/c2ccc(OC(=O)[C@H](Cc3ccccc3)NC(=O)OCc3ccccc3)c(OC)c2)ccc1OC(=O)[C@H](Cc1ccccc1)NC(=O)OCc1ccccc1 ... bin C

In: Lab note: sort "COc1cc(/C=C/C(=O)CC(=O)/C=C/c2ccc(OC(=O)[C@@H](C)NC(=O)OCc3ccccc3)c(OC)c2)ccc1OC(=O)[C@@H](C)NC(=O)OCc1ccccc1" into the matching Mean edema thickness band.
Out: bin A

In: Lab note: sort "COc1cc(/C=C/C(=O)CC(=O)/C=C/c2ccc(OC(=O)CN)c(OC)c2)ccc1OC(=O)CN.Cl.Cl" into the matching Mean edema thickness band.
Out: bin A

In: Lab note: sort "COc1cc(/C=C/C(=O)CC(=O)/C=C/c2ccc(OC(=O)CNC(=O)OC(C)(C)C)c(OC)c2)ccc1OC(=O)CNC(=O)OC(C)(C)C" into the matching Mean edema thickness band.
Out: bin B

In: Lab note: sort "COc1cc(/C=C/C(=O)CC(=O)/C=C/c2ccc(OC(=O)[C@@H](CCSC)NC(=O)OC(C)(C)C)c(OC)c2)ccc1OC(=O)[C@@H](CCSC)NC(=O)OC(C)(C)C" into the matching Mean edema thickness band.
Out: bin A

---

- System: A-549 (lung) carcinoma cell line
- ASSAY_METHOD_TEXT: Anti-tumor properties, MTT
- Format: cell-based
- MEASUREMENT_CONDITIONS: Homo sapiens, A549
EXPERIMENTAL_ENDPOINT: IC50

These solved cases illustrate the format of a correct answer.
COc1cc(/C=C/C(=O)CC(=O)/C=C/c2ccc(OC(=O)CCNC(=O)OC(C)(C)C)c(OC)c2)ccc1OC(=O)CCNC(=O)OC(C)(C)C [Boc-β-Ala-Cur] ... > 100 µM
COc1cc(/C=C/C(=O)CC(=O)/C=C/c2ccc(OC(=O)[C@@H](C)NC(=O)OCc3ccccc3)c(OC)c2)ccc1OC(=O)[C@@H](C)NC(=O)OCc1ccccc1 [Z-D-Ala-Cur] ... > 100 µM

// moving on: another record for IC50
A-549 (lung) carcinoma cell line IC50 of CC[C@H](C)[C@H](N)C(=O)Oc1ccc(/C=C/C(=O)CC(=O)/C=C/c2ccc(OC(=O)[C@@H](N)[C@@H](C)CC)c(OC)c2)cc1OC.Cl.Cl [HCl-L-Ile-Cur] is 20.9 µM

---

- System: PC3 (prostate) carcinoma cell line
- ASSAY_METHOD_TEXT: Anti-tumor properties, MTT
- Format: cell-based
- MEASUREMENT_CONDITIONS: Homo sapiens
EXPERIMENTAL_ENDPOINT: IC50 (µM)
Entry rule: numbers only, all in µM.

These solved cases illustrate the format of a correct answer.
COc1cc(/C=C/C(=O)CC(=O)/C=C/c2ccc(OC(=O)[C@H](C)N)c(OC)c2)ccc1OC(=O)[C@H](C)N.Cl.Cl [HCl-L-Ala-Cur] ... 31.5
COc1cc(/C=C/C(=O)CC(=O)/C=C/c2ccc(OC(=O)[C@@H](N)CCSC)c(OC)c2)ccc1OC(=O)[C@@H](N)CCSC.Cl.Cl [HCl-L-Met-Cur] ... 42.6
COc1cc(/C=C/C(=O)CC(=O)/C=C/c2ccc(OC(=O)[C@@H](N)Cc3ccccc3)c(OC)c2)ccc1OC(=O)[C@@H](N)Cc1ccccc1.Cl.Cl [HCl-L-Phe-Cur] ... 74.4
COc1cc(/C=C/C(=O)CC(=O)/C=C/c2ccc(OC(=O)C(C)N)c(OC)c2)ccc1OC(=O)C(C)N.Cl.Cl (racemic) [HCl-DL-Ala-Cur] ... 21.7

In plain terms, COc1cc(/C=C/C(=O)CC(=O)/C=C/c2ccc(OC(=O)[C@H](N)CCSC)c(OC)c2)ccc1OC(=O)[C@H](N)CCSC.Cl.Cl [HCl-D-Met-Cur] has a documented IC50 of 41.5

In plain terms, COc1cc(/C=C/C(=O)CC(=O)/C=C/c2ccc(OC(=O)CCN)c(OC)c2)ccc1OC(=O)CCN.Cl.Cl [HCl-β-Ala-Cur] has a documented IC50 of 30.2

---

- Tested on: PC3 (prostate) carcinoma cell line
- ASSAY_METHOD_TEXT: Anti-tumor properties, MTT
- Format: cell-based
- MEASUREMENT_CONDITIONS: Homo sapiens
EXPERIMENTAL_ENDPOINT: IC50 (µM)
Entry rule: numbers only, all in µM.

In plain terms, "COc1cc(/C=C/C(=O)CC(=O)/C=C/c2ccc(OC(=O)[C@H](CCC(N)=O)NC(=O)OCc3ccccc3)c(OC)c2)ccc1OC(=O)[C@H](CCC(N)=O)NC(=O)OCc1ccccc1" has a documented IC50 of 90.7

In plain terms, COc1cc(/C=C/C(=O)CC(=O)/C=C/c2ccc(OC(=O)[C@@H](N)CCC(N)=O)c(OC)c2)ccc1OC(=O)[C@@H](N)CCC(N)=O.Cl.Cl [HCl-L-Gln-Cur] has a documented IC50 of 34.4
